Below: a set of entries, each annotated with reported inhibition at 25 µM.
Target: hT2R4 (Homo sapiens (Human), UniProt Q9NYW5)
Sequence (Q9NYW5 whole entry): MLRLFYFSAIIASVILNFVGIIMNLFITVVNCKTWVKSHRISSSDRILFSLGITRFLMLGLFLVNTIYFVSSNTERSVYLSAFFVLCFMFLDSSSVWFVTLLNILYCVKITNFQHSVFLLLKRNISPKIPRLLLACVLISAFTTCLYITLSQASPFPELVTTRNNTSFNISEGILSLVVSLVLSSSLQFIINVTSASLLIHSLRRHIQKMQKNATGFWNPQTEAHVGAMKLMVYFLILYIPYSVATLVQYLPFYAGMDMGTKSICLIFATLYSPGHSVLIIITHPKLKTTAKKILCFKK
Assay: hT2R panel inhibition, transient HEK293 G16g44, agonist Chloroquine pH6.5 5 mM
Format: cell-based
Conditions: HEK293, compound at 25 μM; receptor activated to EC80 with the corresponding agonist; class symbols; read-out: screening result against bitter receptor 4
property label: inhibition at 25 µM

INSERT INTO results (molecule, recorded_value) VALUES
  ('COc1cccc(CN(Cc2ccco2)S(=O)(=O)c2ccc(C(=O)O)cc2)c1', '20 to 40%'),
  ('CC(=O)Nc1ccc(S(=O)(=O)N(Cc2ccccc2)CC2CCC(C(=O)O)CC2)cc1 (centres unmarked)', '20 to 40%'),
  ('COc1ccc(CN(Cc2ccccc2C#N)S(=O)(=O)c2ccc(C(=O)O)cc2)cc1', '20 to 40%'),
  ('COc1ccc(CN(C2CCCc3ccccc32)S(=O)(=O)c2ccc(C(=O)O)cc2)cc1 (centres unmarked)', '20 to 40%'),
  ('COc1ccc(CN(Cc2ccccc2)S(=O)(=O)c2ccc(C(=O)O)cc2)cc1', '20 to 40%'),
  ('COc1ccc(CN(Cc2ccc(NC(C)=O)cc2)S(=O)(=O)c2ccc(C(=O)O)cc2)cc1', '40 to 60%'),
  ('COc1ccccc1CN(Cc1ccc(C(=O)O)cc1)S(=O)(=O)c1ccccc1', '40 to 60%'),
  ('COc1ccc(CN(Cc2ccco2)S(=O)(=O)c2ccc(C(=O)O)cc2)cc1', '20 to 40%');

----------
Biological target: UniProt Q9NYW6
Sequence (Q9NYW6 whole entry): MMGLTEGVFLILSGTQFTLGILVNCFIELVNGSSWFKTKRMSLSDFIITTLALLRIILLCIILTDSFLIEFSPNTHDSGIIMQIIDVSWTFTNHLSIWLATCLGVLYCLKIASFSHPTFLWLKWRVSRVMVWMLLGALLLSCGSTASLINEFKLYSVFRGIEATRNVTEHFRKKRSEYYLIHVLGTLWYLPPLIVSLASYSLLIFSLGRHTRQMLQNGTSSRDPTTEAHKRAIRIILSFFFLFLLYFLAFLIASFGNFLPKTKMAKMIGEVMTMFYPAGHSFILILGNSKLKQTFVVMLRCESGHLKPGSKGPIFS
Test: hT2R panel inhibition, transient HEK293 G16g44, agonist Chloroquine pH6.5 50 μM
Type: cell-based
Settings: HEK293, compound at 25 μM; receptor activated to EC80 with the corresponding agonist; read-out: screening result against bitter receptor 3
property label: inhibition at 25 µM

INSERT INTO results (molecule, target, recorded_value) VALUES
  ('O=C(O)c1ccc(S(=O)(=O)NCc2ccco2)cc1 [Example 5-54]', 'UniProt Q9NYW6', '20 to 40%'),
  ('COc1ccc(CN(Cc2ccccc2F)S(=O)(=O)c2ccc(C(=O)O)cc2)cc1 [Example 5-31]', 'UniProt Q9NYW6', '20 to 40%'),
  ('COc1ccc(CNS(=O)(=O)c2ccc(C(=O)O)cc2)cc1 [Example 5-56]', 'UniProt Q9NYW6', '20 to 40%'),
  ('COc1ccc(CN(Cc2ccco2)S(=O)(=O)c2ccc(C(=O)O)cc2)cc1 [Example 5-2]', 'UniProt Q9NYW6', '40 to 60%'),
  ('Cc1ccc(S(=O)(=O)N(Cc2ccccc2)CC2CCC(C(=O)O)CC2)cc1 (centres unmarked) [Example 5-11]', 'UniProt Q9NYW6', '60 to 80%');

----------
Here, each record is paired with measured inhibition at 25 µM data.
Molecular target: hT2R16 (Homo sapiens (Human))
Sequence (Q9NYV7 whole entry): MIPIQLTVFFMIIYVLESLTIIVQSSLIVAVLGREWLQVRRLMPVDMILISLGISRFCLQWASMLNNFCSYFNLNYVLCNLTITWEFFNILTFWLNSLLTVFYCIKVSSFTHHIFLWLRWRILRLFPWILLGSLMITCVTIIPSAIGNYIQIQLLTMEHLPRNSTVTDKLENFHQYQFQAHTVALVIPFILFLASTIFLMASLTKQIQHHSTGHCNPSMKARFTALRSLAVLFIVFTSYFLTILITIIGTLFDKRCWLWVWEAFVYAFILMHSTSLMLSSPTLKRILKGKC
Experiment: hT2R panel inhibition, transient HEK293 G16g44, agonist Salicin 1 mM
Format: cell-based
Details: HEK293, compound at 25 μM; receptor activated to EC80 with the corresponding agonist; read-out: screening result against bitter receptor 16
property label: inhibition at 25 µM

INSERT INTO assay_data (compound, property_label, recorded_value) VALUES
  ('O=C(O)c1ccc(S(=O)(=O)N(Cc2ccccc2)Cc2ccc(Cl)cc2)cc1 [Example 5-77]', 'inhibition at 25 µM', '20 to 40%'),
  ('COc1ccc(CN(Cc2ccccc2)S(=O)(=O)Cc2ccc(C(=O)O)cc2)cc1 [Example 5-16]', 'inhibition at 25 µM', '20 to 40%'),
  ('COc1ccc(CN(Cc2ccc(OC)c(F)c2)S(=O)(=O)c2ccc(C(=O)O)cc2)cc1 [Example 5-41]', 'inhibition at 25 µM', '20 to 40%'),
  ('COc1ccccc1CN(Cc1ccc(C(=O)O)cc1)S(=O)(=O)c1ccccc1 [Example 5-100]', 'inhibition at 25 µM', '20 to 40%'),
  ('COc1ccc(CN(Cc2ccccc2)S(=O)(=O)c2ccc(C(=O)O)cc2)cc1C [Example 5-89]', 'inhibition at 25 µM', '20 to 40%'),
  ('COc1ccc(CN(Cc2cc(OC)cc(OC)c2)S(=O)(=O)c2ccc(C(=O)O)cc2)cc1 [Example 5-67]', 'inhibition at 25 µM', '20 to 40%'),
  ('COc1ccc(CCN(Cc2ccccc2)S(=O)(=O)c2ccc(C(=O)O)cc2)cc1 [Example 5-81]', 'inhibition at 25 µM', '20 to 40%'),
  ('COc1ccc(CN(Cc2cccc(F)c2)S(=O)(=O)c2ccc(C(=O)O)cc2)cc1 [Example 5-12]', 'inhibition at 25 µM', '60 to 80%'),
  ('COc1cccc(CN(Cc2ccccc2)S(=O)(=O)c2ccc(C(=O)O)cc2)c1 [Example 5-74]', 'inhibition at 25 µM', '20 to 40%'),
  ('O=C(O)c1ccc(S(=O)(=O)N(Cc2ccccc2)Cc2ccco2)cc1 [Example 5-5]', 'inhibition at 25 µM', '40 to 60%'),
  ('O=C(O)C1CCC(CN(Cc2ccc(F)cc2)S(=O)(=O)c2ccccc2)CC1 (centres unmarked) [Example 5-22]', 'inhibition at 25 µM', '20 to 40%'),
  ('COc1ccc(CN(Cc2ccccc2C#N)S(=O)(=O)c2ccc(C(=O)O)cc2)cc1 [Example 5-25]', 'inhibition at 25 µM', '40 to 60%'),
  ('O=C(O)c1ccc(CN(Cc2ccccc2F)S(=O)(=O)c2ccccc2)cc1 [Example 5-103]', 'inhibition at 25 µM', '20 to 40%'),
  ('COc1ccccc1CN(Cc1ccc(C(=O)O)cc1)S(=O)(=O)c1ccc(O)cc1 [Example 5-42]', 'inhibition at 25 µM', '20 to 40%'),
  ('O=C(O)c1ccc(S(=O)(=O)N(Cc2ccccc2)Cc2ccc(O)cc2)cc1 [Example 5-99]', 'inhibition at 25 µM', '20 to 40%'),
  ('O=C(O)c1ccc(CN(Cc2cccc(F)c2)S(=O)(=O)c2ccccc2)cc1 [Example 5-104]', 'inhibition at 25 µM', '20 to 40%'),
  ('COc1ccc(CN(Cc2ccccc2)S(=O)(=O)c2ccc(C(=O)O)cc2)c(OC)c1 [Example 5-13]', 'inhibition at 25 µM', '20 to 40%'),
  ('COc1ccc(CN(Cc2ccccc2)S(=O)(=O)c2ccc(C(=O)O)cc2)cc1 [Example 5-1]', 'inhibition at 25 µM', '40 to 60%'),
  ('COc1ccc(CN(CC2CCCCC2)S(=O)(=O)c2ccc(C(=O)O)cc2)cc1 [Example 5-23]', 'inhibition at 25 µM', '60 to 80%'),
  ('COc1ccc(CN(Cc2ccccc2)S(=O)(=O)c2ccc(C(=O)O)cc2)cn1 [Example 5-90]', 'inhibition at 25 µM', '20 to 40%'),
  ('COc1ccc(CN(Cc2ccc(C(=O)O)cc2)S(=O)(=O)c2ccccc2)cc1 [Example 5-102]', 'inhibition at 25 µM', '20 to 40%'),
  ('COc1ccc(CN(Cc2ccc(F)c(F)c2)S(=O)(=O)c2ccc(C(=O)O)cc2)cc1 [Example 5-36]', 'inhibition at 25 µM', '20 to 40%'),
  ('COc1ccc(CN(c2ccccc2)S(=O)(=O)c2ccc(C(=O)O)cc2)cc1 [Example 5-18]', 'inhibition at 25 µM', '40 to 60%'),
  ('Cc1ccc(S(=O)(=O)N(Cc2ccc(F)cc2)Cc2ccc(C(=O)O)cc2)cc1 [Example 5-37]', 'inhibition at 25 µM', '20 to 40%'),
  ('O=C(O)c1ccc(S(=O)(=O)N(Cc2ccccc2)Cc2cccc(Cl)c2)cc1 [Example 5-84]', 'inhibition at 25 µM', '20 to 40%'),
  ('COc1ccc(CN(Cc2ccco2)S(=O)(=O)c2ccc(C(=O)O)cc2)cc1 [Example 5-2]', 'inhibition at 25 µM', '60 to 80%'),
  ('COc1ccc(CN(Cc2ccc(OC)cc2)S(=O)(=O)c2ccc(C(=O)O)cc2)cc1 [Example 5-30]', 'inhibition at 25 µM', '20 to 40%'),
  ('CCCN(Cc1ccc(OC)cc1)S(=O)(=O)c1ccc(C(=O)O)cc1 [Example 5-17]', 'inhibition at 25 µM', '20 to 40%'),
  ('COc1ccc(CN(Cc2cccc(F)c2F)S(=O)(=O)c2ccc(C(=O)O)cc2)cc1 [Example 5-33]', 'inhibition at 25 µM', '40 to 60%'),
  ('COc1cccc(CN(Cc2ccc(C(=O)O)cc2)S(=O)(=O)c2ccccc2)c1 [Example 5-101]', 'inhibition at 25 µM', '40 to 60%'),
  ('COc1ccc(CN(Cc2ccccc2)S(=O)(=O)c2ccc(-c3nn[nH]n3)cc2)cc1 [Example 5-46]', 'inhibition at 25 µM', '20 to 40%'),
  ('COc1ccccc1CN(Cc1ccccc1)S(=O)(=O)c1ccc(C(=O)O)cc1 [Example 5-71]', 'inhibition at 25 µM', '20 to 40%'),
  ('COc1ccc(N(Cc2ccccc2)S(=O)(=O)c2ccc(C(=O)O)cc2)cc1 [Example 5-35]', 'inhibition at 25 µM', '20 to 40%'),
  ('COc1ccc(CN(Cc2cccc(Cl)c2)S(=O)(=O)c2ccc(C(=O)O)cc2)cc1 [Example 5-14]', 'inhibition at 25 µM', '60 to 80%'),
  ('COc1ccc(CN(Cc2ccc(OC)c(OC)c2)S(=O)(=O)c2ccc(C(=O)O)cc2)cc1 [Example 5-40]', 'inhibition at 25 µM', '20 to 40%');

Provenance of the data: patent US9247759B2
